Kindly supply the reported cell viability values for the records listed here.
Test system: HepG2
Test: cell viability relative to DMSO; higher = less toxic
Conditions: 72 h; 1 nM
The reply should be a number in %, with the unit left off.

Field cell viability (entry CC[C@H](NC(=O)c1c(O)c(-c2ccccc2)nc2ccccc12)c1ccccc1 ) reads 102

Field cell viability (entry O=C(O)CNC(=O)c1ccccc1I ) reads 101

Field cell viability (entry CCCCCCCCCCCCCCCCCCCCCCO ) reads 104

Field cell viability (entry C=CC(N)CCC(=O)O (stereo not drawn) ) reads 100

Field cell viability (entry CO/N=C(\C(=O)N[C@@H]1C(=O)N2C(C(=O)O)=C(COC(N)=O)CS[C@H]12)c1ccco1 [CEFUROXIME SODIUM] ) reads 97.7

Field cell viability (entry CCCSc1nc(N[C@@H]2C[C@H]2c2ccc(F)c(F)c2)c2nnn([C@@H]3C[C@H](OCCO)[C@@H](O)[C@H]3O)c2n1 ) reads 107

Field cell viability (entry CCOC(=O)C1=C(N)Oc2ccc(Br)cc2C1C(C#N)C(=O)OCC (stereo not drawn) ) reads 100

Field cell viability (entry C[C@@H]1O[C@@H](O[C@H]2[C@H](Oc3cc(O)c4c(c3)O[C@H](c3ccc(O)cc3)CC4=O)O[C@H](CO)[C@@H](O)[C@@H]2O)[C@H](O)[C@H](O)[C@H]1O [Naringin (Naringoside)] ) reads 104

Field cell viability (entry Cc1ccc(S(=O)(=O)/C=C/C#N)cc1 ) reads 94.2

Field cell viability (entry O=C(/C=C/c1c(C(=O)O)[nH]c2cc(Cl)cc(Cl)c12)Nc1ccccc1 ) reads 94.5

Field cell viability (entry CC(C)NCCCn1c(Sc2cc3c(cc2I)OCO3)nc2c(N)ncnc21 ) reads 101

Field cell viability (entry CC(C)CC(NC(=O)OCC1c2ccccc2-c2ccccc21)C(=O)O (stereo in doubt) ) reads 90.3

Field cell viability (entry CCSc1ccc2c(c1)N(CCCN1CCN(C)CC1)c1ccccc1S2 ) reads 98

Field cell viability (entry OC(CCN1CCCCC1)(c1ccccc1)c1ccccc1 ) reads 101

Field cell viability (entry Oc1ccc2c3c1O[C@H]1c4c(c5ccccc5n4Cc4ccccc4)C[C@@]4(O)[C@@H](C2)N(CC2CC2)CC[C@]314 ) reads 102

Field cell viability (entry C=CCNc1ncnc2ccc(Br)cc12 ) reads 92.3

Field cell viability (entry c1ccc(-c2cnn3cc(-c4ccc(OCCN5CCOCC5)cc4)cnc23)cc1 ) reads 96.4

Field cell viability (entry COc1ccc(-n2c(C)c([N+](=O)[O-])c3ccc(O)cc32)cc1 ) reads 99.3

Field cell viability (entry O=C(C(c1ccccc1)c1ccccc1)N1CCN(CC(O)COc2cccc3ncccc23)CC1 (stereo not drawn) ) reads 95.7

Field cell viability (entry CCNC(=O)[C@H]1O[C@@H](n2cnc3c(N)nc(NCCc4ccc(CCC(=O)O)cc4)nc32)[C@H](O)[C@@H]1O ) reads 96.2

Field cell viability (entry C[C@H](NC(=O)[C@@H](O)c1cc(F)cc(F)c1)C(=O)N[C@@H]1C(=O)N(C)c2ccccc2-c2ccccc21 ) reads 97.1

Field cell viability (entry O=S(=O)(c1cccc2c(Cl)cccc12)N1CCCNCC1 ) reads 96.3

Field cell viability (entry C=C[C@]1(C)CC[C@@H](C(=C)C)C[C@H]1C(=C)C ) reads 95.8
